experiment: Population PK analysis; assay type: in vivo, human; conditions: human, in vivo, oral
value.kind: clearance (mL/min)
Give the number; mL/min is assumed, so skip it.

Which value of clearance has been reported for COc1ncc(-c2ccc3nccc(-c4ccnnc4)c3c2)cc1NS(=O)(=O)c1ccc(F)cc1F in the records?
54.2
